target: human melanocortin 4 receptor (MC4R) (human, UniProt P32245 1-332); assay: cell-based or functional assay
Sequence (P32245 whole entry): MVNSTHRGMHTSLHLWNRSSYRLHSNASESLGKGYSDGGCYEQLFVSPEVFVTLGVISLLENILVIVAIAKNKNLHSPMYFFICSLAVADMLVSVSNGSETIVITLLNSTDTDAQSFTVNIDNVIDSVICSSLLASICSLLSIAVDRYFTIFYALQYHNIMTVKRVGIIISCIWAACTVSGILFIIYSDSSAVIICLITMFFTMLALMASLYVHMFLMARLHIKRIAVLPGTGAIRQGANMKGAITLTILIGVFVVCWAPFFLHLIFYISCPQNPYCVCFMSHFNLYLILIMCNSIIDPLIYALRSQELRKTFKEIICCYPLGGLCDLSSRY
Positions of bridges follow the written chain, without caps; N, C: chain ends. Non-standard residues stand in square brackets, D forms with d. d2Nal = N[C@H](Cc1ccc2ccccc2c1)C(=O)O; Hyp = O=C(O)[C@@H]1C[C@@H](O)CN1; Nle = CCCC[C@H](N)C(=O)O
property-measured: Max Activation % (%)

Ac-[Nle]DP[d2Nal]RWK[dP][dV]-NH2 (lactam 2-7; SMILES CCCC[C@H](NC(C)=O)C(=O)N[C@H]1CC(=O)NCCCC[C@@H](C(=O)N2CCC[C@@H]2C(=O)N[C@@H](C(N)=O)C(C)C)NC(=O)[C@H](Cc2c[nH]c3ccccc23)NC(=O)[C@H](CCCNC(=N)N)NC(=O)[C@@H](Cc2ccc3ccccc3c2)NC(=O)[C@@H]2CCCN2C1=O) [TCMCB02]
120
VDPFFRWKVP [B9]
-3.71
IPWRWVP [C5]
2.47
LDPFFRWKVP [B7]
-2.96
Ac-LDPFFRWKVP-NH2 (lactam 2-8; SMILES CC(=O)N[C@@H](CC(C)C)C(=O)N[C@H]1CC(=O)NCCCC[C@@H](C(=O)N[C@H](C(=O)N2CCC[C@H]2C(N)=O)C(C)C)NC(=O)[C@H](Cc2c[nH]c3ccccc23)NC(=O)[C@H](CCCNC(=N)N)NC(=O)[C@H](Cc2ccccc2)NC(=O)[C@H](Cc2ccccc2)NC(=O)[C@@H]2CCCN2C1=O) [B2]
35.5
Ac-[Nle]DP[d2Nal]RWK[dV][dP]-NH2 (SMILES CCCC[C@H](NC(C)=O)C(=O)N[C@@H](CC(=O)O)C(=O)N1CCC[C@H]1C(=O)N[C@H](Cc1ccc2ccccc2c1)C(=O)N[C@@H](CCCNC(=N)N)C(=O)N[C@@H](Cc1c[nH]c2ccccc12)C(=O)N[C@@H](CCCCN)C(=O)N[C@@H](C(=O)N1CCC[C@@H]1C(N)=O)C(C)C) [A1]
79.3
Ac-[Nle]D[Hyp][d2Nal]RWK[dV][dP]-NH2 (lactam 2-7; SMILES CCCC[C@H](NC(C)=O)C(=O)N[C@H]1CC(=O)NCCCC[C@@H](C(=O)N[C@@H](C(=O)N2CCC[C@@H]2C(N)=O)C(C)C)NC(=O)[C@H](Cc2c[nH]c3ccccc23)NC(=O)[C@H](CCCNC(=N)N)NC(=O)[C@@H](Cc2ccc3ccccc3c2)NC(=O)[C@@H]2C[C@@H](O)CN2C1=O) [D3]
117
